target: SBP (sucrose binding protein; MBP mutant Asp14Leu, Lys15Phe, Trp62Tyr, Glu111Tyr) fusion protein CSY-B (Escherichia coli, UniProt P0AEX9, D40L/E137Y/K41F/W88Y); construct: SBP = engineered MBP made on pMALc2x template; test: Sucrose and maltose titration of FRET sensor CSY-B
pKd: −log10 of the molar value.
Parameter: pKd

In [3]: df
Out[3]:
                              smiles_record  value
0  OC[C@H]1O[C@@](CO)(O[C@H]2O[C@H](CO)[C@@H](O)[C@H](O)[C@H]2O)[C@@H](O)[C@@H]1O   3.54

src = patent US7432353B2
